Measurement Description: In vivo pharmacokinetics in CD-1 mice
Applied Conditions: male, CD-1, mouse, plasma, iv, 1 mg/kg, male CD-1 mice; study doses 1 mg/kg intravenous, 2 mg/kg oral; read-out: Clearance CL
Description: CD-1 mice (male, 7-9 weeks old, Shanghai Slac) The rodent pharmacokinetic characteristics after intravenous injection and oral administration of the compounds were tested by standard protocols, in the experiment, the candidate compounds were formulated into clear solutions and administrated to mice via a single intravenous injection and oral administration. […]
Counter-ions that a name gives are not always drawn.
Assay Endpoint: clearance (mL/min/kg)
Reply numerically in mL/min/kg, unit not repeated.

Some entries whose results are on file:
{"Compound": "O=C(O)c1ccc(CN2CCC3(CC2)CC(N[C@@H]2C[C@H]2c2ccccc2)CO3)cc1 (some centres unmarked) [Hydrochloride of the compound 6]", "Units Symbol": "mL/min/kg", "Quantitative Result": 40.2}
{"Compound": "NC1(C(=O)N2CCC3(CC2)CC(N[C@@H]2C[C@H]2c2ccccc2)CO3)CC1 (some centres unmarked) [Hydrochloride of the compound 34]", "Units Symbol": "mL/min/kg", "Quantitative Result": 25.3}
{"Compound": "O=C(O)c1ccc(CN2CCC3(CC2)CC(N[C@@H]2C[C@H]2c2ccccc2)CO3)cn1 (some centres unmarked) [Hydrochloride of the compound 20]", "Units Symbol": "mL/min/kg", "Quantitative Result": 19.7}
{"Compound": "NC(=O)c1ccc(CN2CCC3(CC2)CC(N[C@@H]2C[C@H]2c2ccccc2)CO3)cc1 (some centres unmarked) [Hydrochloride of the compound 23]", "Units Symbol": "mL/min/kg", "Quantitative Result": 68.7}

Field: next compound
Form: compound = O=C(O)c1ccc(CN2CCC3(CC2)CC(N[C@@H]2C[C@H]2c2ccccc2)CO3)nc1 (some centres unmarked) [Hydrochloride of the compound 14] ; clearance = 16.9

* * *

Measurement Description: In vivo pharmacokinetics in CD-1 mice
Applied Conditions: male, CD-1, mouse, plasma, po, 2 mg/kg, male CD-1 mice, PO 2 mg/kg; read-out: The area under the plasma concentration-time curve AUC0-last PO
Structures can show the parent of a compound that is named as a salt.
# strict inequality: AUC(0-t) < 700 nM·h yields Criterion met, everything else yields Criterion not met

Study these solved cases before continuing.
{"Molecule": "O=C(O)c1ccc(CN2CCC3(CC2)CC(N[C@@H]2C[C@H]2c2ccccc2)CO3)nc1 (some centres unmarked) [Hydrochloride of the compound 14]", "Label": "Criterion not met"}
{"Molecule": "O=C(O)c1ccc(CN2CCC3(CC2)CC(N[C@@H]2C[C@H]2c2ccccc2)CO3)cn1 (some centres unmarked) [Hydrochloride of the compound 20]", "Label": "Criterion not met"}
{"Molecule": "NC1(C(=O)N2CCC3(CC2)CC(N[C@@H]2C[C@H]2c2ccccc2)CO3)CC1 (some centres unmarked) [Hydrochloride of the compound 34]", "Label": "Criterion not met"}

QUERY: Dear reviewer, please state whether NC(=O)c1ccc(CN2CCC3(CC2)CC(N[C@@H]2C[C@H]2c2ccccc2)CO3)cc1 (some centres unmarked) [Hydrochloride of the compound 23] has AUC(0-t) strictly beneath 700 nM·h.
RESULT: Criterion met
